Data provenance is patent US20120219562A1.

- system_name: T1, human interleukin 12 (human, UniProt P29459 23-219; P29460 23-328)
- T1 construct: heterodimer of p35 and p40 linked by a disulfide bridge; also called hIL-12; IL-12
- T1 sequence (looked up) 1: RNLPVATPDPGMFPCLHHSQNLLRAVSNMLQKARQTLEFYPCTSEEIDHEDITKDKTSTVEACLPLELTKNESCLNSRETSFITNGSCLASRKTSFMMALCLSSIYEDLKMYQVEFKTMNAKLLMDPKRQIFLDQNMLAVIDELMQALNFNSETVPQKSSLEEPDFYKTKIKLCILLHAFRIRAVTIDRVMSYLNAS
- T1 sequence (looked up) 2: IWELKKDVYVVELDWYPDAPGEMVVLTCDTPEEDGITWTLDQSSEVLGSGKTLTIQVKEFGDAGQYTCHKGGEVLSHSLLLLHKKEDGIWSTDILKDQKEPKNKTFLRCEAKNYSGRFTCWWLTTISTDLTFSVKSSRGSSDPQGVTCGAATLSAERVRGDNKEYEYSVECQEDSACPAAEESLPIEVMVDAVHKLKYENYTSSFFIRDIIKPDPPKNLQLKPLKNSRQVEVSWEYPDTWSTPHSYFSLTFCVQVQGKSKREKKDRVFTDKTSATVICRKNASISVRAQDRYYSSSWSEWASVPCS
- assay_name: SPR (BIAcore)
Give measured koff for each item. Keep answers brief.
Dear colleague, please return just the value in s⁻¹, with no unit written.

Field request: koff | item: 73-B1 (antibody, V domains shown) VH: QVQLVQSGGGVVQPGRSLRLSCAASGFTFSSYGMHWVRQAPGKGLEWVAFIRYDGSNKYYADSVKGRFTISRDNSKNTLYLQMKSLRAEDTAVYYCTTSGSYDYWGQGTMVTVSS VL: SYVLTQPPSVSGTPGQRVTISCSGGRSNIGSNTVKWYQQLPGTAPKLLIYGNDQRPSGVPDRFSGSKSGTSASLAITGVQAEDEADYYCHSYDSDFTGSRVFGTGTKVTVLG
0.00325

Field request: koff | item: M2 E2 (antibody, V domains shown) VH: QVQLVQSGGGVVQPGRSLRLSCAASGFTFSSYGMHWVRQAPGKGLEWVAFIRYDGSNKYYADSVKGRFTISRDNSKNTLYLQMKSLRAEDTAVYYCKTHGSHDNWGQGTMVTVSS VL: SYVLTQPPSVSGTPGQRVTISCSGGRSNIGSNTVKWYQQLPGTAPKLLIYGNDQRPSGVPDRFSGSKSGTSASLAITGVQAEDEADYYCQSYDNGFTGSRVFGTGTKVTVL
0.0477

Field request: koff | item: M2 D3 (antibody, V domains shown) VH: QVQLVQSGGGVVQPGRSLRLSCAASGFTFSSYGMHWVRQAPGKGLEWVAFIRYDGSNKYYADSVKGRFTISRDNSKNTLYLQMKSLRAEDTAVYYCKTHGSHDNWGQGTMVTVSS VL: SYVLTQPPSVSGTPGQRVTISCSGGRSNIGSNTVKWYQQLPGTAPKLLIYGNDQRPSGVPDRFSGSKSGTSASLAITGVQAEDEADYYCQSYDNRLTGSRVFGTGTKVTVLG
0.0333
